The reported measurements were obtained from PubChem BioAssay AID743183.

# System: non-replicating M. tuberculosis, luciferase reporter luminescence
# measurement description: inhibitors of non-replicating M. tuberculosis, dose response, luciferase, dry powder (AID 743183)
Records with an inconclusive call do not appear.
Can you tell me AC90 for the items I'm about to list?

Use the examples below as a reference point.
compound	AC90
O=C(COc1cccc2ccccc12)Nc1nc2ccccc2[nH]1	6.61 µM
CCOC(=O)c1cc(-c2csc(COc3ccccc3)n2)on1	6.95 µM
O=C(NCc1cccs1)c1ccc(Br)o1	5.8 µM

Record AC90 per entry; entries follow.
1. CCOCCOC(=O)COc1ccc2c(-c3ccccc3)cc(=O)oc2c1
2. CCc1ccc(OCCCC(=O)NCc2ccco2)cc1
3. CCOC(=O)c1cc(-c2csc(COc3ccccc3Cl)n2)on1
4. CS(=O)(=O)Cc1nc2ccccc2oc1=O
5. O=C(CCc1ccccc1)NC1C2CC3CC(C2)CC1C3 (stereo not given)
6. CCOC(=O)COc1ccc2c(c1)C(=O)CC1(CCCCC1)O2
7. Clc1cccc(-c2ccc(CNCc3ccccn3)o2)c1

Ans.
1: 8.82 µM; 2: 31.8 µM; 3: 4.52 µM; 4: 38.6 µM; 5: 10.3 µM; 6: 5.77 µM; 7: 16.3 µM

Each of the following entries comes with a recorded value; kindly state AC90 for each.
1. NC1CCN(c2c(F)cc3c(=O)c(C(=O)O)cn(C4CC4)c3c2Cl)C1 (stereo not given)
2. O=C(NC1CC2CCC1C2)C1COc2ccccc2O1 (stereo not given)
3. Cc1cccc(C)c1N1C(=O)CC(N2CCSCC2)C1=O (stereo not given)

Ans.
2.04 µM
1.39 µM
4.7 µM

Take each entry in turn and give its AC90.
1. Cc1cc(NC(=O)C2CCCCC2)n(-c2nc3ccccc3[nH]2)n1
2. CCOC(=O)COc1ccc(C(=O)NC2CCCCC2)cc1

Ans.
["12.9 µM", "8.93 µM"]

---

# System: non-replicating M. tuberculosis, luciferase reporter luminescence
# measurement description: inhibitors of non-replicating M. tuberculosis, dose response, luciferase, dry powder (AID 743183)
Results filed as inconclusive are left out.
observed property: AC90

Answered examples (5):
smiles structure	test system	AC90
COC(=O)COc1cccc(NC(=O)c2ccc(Cl)cc2)c1	non-replicating M. tuberculosis, luciferase reporter luminescence	11.7 µM
CCOC(=O)COc1ccc2c(=O)cc(-c3ccccc3)oc2c1	non-replicating M. tuberculosis, luciferase reporter luminescence	2.9 µM
c1ccc(Nc2nc(-c3ccccn3)cs2)cc1	non-replicating M. tuberculosis, luciferase reporter luminescence	1.95 µM
O=C(COc1c(Br)cc(Br)c2cccnc12)N1CCCCC1	non-replicating M. tuberculosis, luciferase reporter luminescence	7.78 µM
CCOC(=O)COc1ccc2c(=O)c(-c3ccccc3)coc2c1	non-replicating M. tuberculosis, luciferase reporter luminescence	3.65 µM

Turning now to a further molecule:
Per the records, this molecule ( `Cc1cccc(Cn2ccc(NC(=O)c3ccc4c(c3)OCO4)n2)c1` ) has AC90 equal to 9.73 µM
